The values you see were collected from ChEMBL document CHEMBL1152109.

- TEST SUMMARY: Ratio of Vmax/Km was evaluated.
Note to self: use rule met only for Ratio readings below 60; a reading exactly at 60 still gets rule not met.

Sample answers from the record:
- COMPOUND: "CCC(Cc1cnc2nc(N)nc(N)c2n1)c1ccc(C(=O)N[C@@H](CCC(=O)O)C(=O)O)cc1 (stereo not given in full)"
  LABEL CLASS: "rule met"
- COMPOUND: "Nc1nc2[nH]cc(CCc3ccc(C(=O)N[C@@H](CCC(=O)O)C(=O)O)cc3)c2c(=O)[nH]1"
  LABEL CLASS: "rule not met"
- COMPOUND: "CN(Cc1cnc2nc(N)nc(N)c2n1)c1ccc(C(=O)N[C@@H](CCC(=O)O)C(=O)O)cc1"
  LABEL CLASS: "rule met"

Here's the next entry for you.
Ratio under 60? Item: `Nc1ncc(CCCCc2ccc(C(=O)N[C@@H](CCC(=O)O)C(=O)O)cc2)c(N)n1` rule met
